All figures here come from PubChem BioAssay.

# System: transactivating tegument protein VP16 (Human herpesvirus 1), Gal4-VP16 luciferase reporter
# PROTOCOL_SUMMARY: VP16 transactivation inhibitors, counter-screen for SRC3 inhibitor project, cell-based, luminescence, high throughput (AID 588794)
# TEST_SETTINGS: mammalian cells, VP16-driven luciferase reporter luminescence; at 3.6 µM; stronger effect = higher value

| COMPOUND | SYSTEM_NAME | UNIT_ANNOTATION | inhibition |
| --- | --- | --- | --- |
| Cc1ccc(/C=C/C(=O)c2c(C)cc(C)[nH]c2=O)cc1 | transactivating tegument protein VP16 (Human herpesvirus 1), Gal4-VP16 luciferase reporter | % | 40 |
| CCOC(=O)N1CCC2(CC1)C(C#N)=C(N)Oc1n[nH]c(CSc3ccc(C)cc3)c12 | transactivating tegument protein VP16 (Human herpesvirus 1), Gal4-VP16 luciferase reporter | % | -6.53 |
| Cc1ccc(C2=NN(C(=O)CCl)C(c3cccs3)C2)o1 (configuration not stated) | transactivating tegument protein VP16 (Human herpesvirus 1), Gal4-VP16 luciferase reporter | % | 13.5 |
| CCOc1cc(C(=O)N2CCC(CC3CC(c4ccc(Cl)cc4)=NO3)(C(=O)NCC3CCCCC3)CC2)cc(OCC)c1OCC (configuration not stated) | transactivating tegument protein VP16 (Human herpesvirus 1), Gal4-VP16 luciferase reporter | % | 7.56 |
| Cc1ccc(-c2cn(-c3ccccc3)c3[n+]2CCCS3)cc1 | transactivating tegument protein VP16 (Human herpesvirus 1), Gal4-VP16 luciferase reporter | % | 27.5 |
| Cn1cc(/C=C/c2cc[n+](C)cc2)c2cc(Cl)ccc21 | transactivating tegument protein VP16 (Human herpesvirus 1), Gal4-VP16 luciferase reporter | % | 43.1 |
| COc1ccc(-c2nc(-c3ccccn3)no2)cc1 | transactivating tegument protein VP16 (Human herpesvirus 1), Gal4-VP16 luciferase reporter | % | 48.2 |
| O=C(CCSc1ccc(Cl)cc1)N1CCN(c2ccc(O)cc2)CC1 | transactivating tegument protein VP16 (Human herpesvirus 1), Gal4-VP16 luciferase reporter | % | 28 |
| Cc1ccc2ccc3ccc(C)nc3c2n1 | transactivating tegument protein VP16 (Human herpesvirus 1), Gal4-VP16 luciferase reporter | % | 70.6 |
| O=C(N/N=C/c1cc(Br)ccc1OC(=O)c1ccc(Br)cc1)c1ccncc1 | transactivating tegument protein VP16 (Human herpesvirus 1), Gal4-VP16 luciferase reporter | % | 28 |
| CC(C)c1ccc(-n2c(-c3ccccc3)c[n+]3c2CCc2ccccc2-3)cc1 | transactivating tegument protein VP16 (Human herpesvirus 1), Gal4-VP16 luciferase reporter | % | 84 |
| COc1cccc(NC(=O)Nc2nc(-c3ccc(OC)c(OC)c3)cs2)c1 | transactivating tegument protein VP16 (Human herpesvirus 1), Gal4-VP16 luciferase reporter | % | 73.5 |
| Cc1[nH]c(=O)c(C(=O)/C=C/c2ccccc2)c2c1CCCC2 | transactivating tegument protein VP16 (Human herpesvirus 1), Gal4-VP16 luciferase reporter | % | 56.1 |
| N=c1c2c(-c3ccccc3)c(-c3ccccc3)n(Cc3ccco3)c2ncn1CCCn1ccnc1 | transactivating tegument protein VP16 (Human herpesvirus 1), Gal4-VP16 luciferase reporter | % | 54.2 |
| O=C(NC1CCCN(Cc2ccccc2F)C1)c1cccc(N2CCCC2=O)c1 (configuration not stated) | transactivating tegument protein VP16 (Human herpesvirus 1), Gal4-VP16 luciferase reporter | % | -7.69 |
| COc1cccc(N2CCN(c3ncnc4c3cnn4-c3ccc(C)cc3C)CC2)c1 | transactivating tegument protein VP16 (Human herpesvirus 1), Gal4-VP16 luciferase reporter | % | 81.1 |
| Clc1ccccc1C1=Nn2c(nnc2-c2ccncc2)SC1 | transactivating tegument protein VP16 (Human herpesvirus 1), Gal4-VP16 luciferase reporter | % | 52.6 |
| COc1ccccc1NC(=O)Nc1nnc(Cc2ccc(F)cc2)s1 | transactivating tegument protein VP16 (Human herpesvirus 1), Gal4-VP16 luciferase reporter | % | 9.25 |
| Nc1nccc(-c2ccc(-n3cnc4ccccc43)cc2)n1 | transactivating tegument protein VP16 (Human herpesvirus 1), Gal4-VP16 luciferase reporter | % | 27.4 |
| C#CC(=O)N(c1ccc(OC)c(OC)c1)C(C(=O)NC1CCCC1)c1cccs1 (configuration not stated) | transactivating tegument protein VP16 (Human herpesvirus 1), Gal4-VP16 luciferase reporter | % | -2.4 |
| O=C(N/N=C/c1c(O)ccc2ccccc12)c1cccc(C(F)(F)F)c1 | transactivating tegument protein VP16 (Human herpesvirus 1), Gal4-VP16 luciferase reporter | % | 78.6 |
| Cc1cccc(CNc2ncnc3ccc(-c4ccoc4)cc23)c1 | transactivating tegument protein VP16 (Human herpesvirus 1), Gal4-VP16 luciferase reporter | % | 40.7 |
